Test system: HIPK3
CONDITION_NOTES: concentration: 1 μM, replicates: in singlicate; n = 1
READOUT_TYPE: %Inh

Answered examples (3):
>>> print(df.to_string())
                                   compound  measurement
0  Cl.Cn1ccc(-c2cccc(Nc3ccnc4cc(-c5nccs5)ccc34)c2)n1           0%
1  CN1c2ccc(-c3ccc(C(=O)NCCO)cc3)cc2-c2[nH]ncc2S1(=O)=O          39%
2  Cc1ccc(O)cc1Nc1cc(C(F)(F)F)nc2ccc(-c3ccncc3)cc12           0%

Then there is this compound:
Query "Cc1ccc(NC(=O)c2cccc(C#N)c2)cc1-c1ccc(C(=O)Nc2ccncc2)cc1" yields %Inh of 8%

----------
Test system: CDK4
CONDITION_NOTES: concentration: 1 μM, replicates: in singlicate; n = 1
Label MET when %Inh is strictly below 6%; at or above that, label NOT MET.

Some solved cases for reference:
>>> df
                                   molecule  assigned_category
0  O=C(Nc1ccccc1F)NC1CCN(c2ccnc(Nc3ccc(F)cc3)n2)C1 (stereo not drawn)            NOT MET
1  Cl.c1ccc(Cn2ccc3cc(Nc4ncnc5ccccc45)ccc32)cc1            NOT MET
2  Cl.c1ccc(Cn2ncc3cc(Nc4ncnc5ccccc45)ccc32)cc1            NOT MET

Dear colleague, could you confirm whether %Inh of "COC(=O)c1cccc(NC(=O)NCCNc2ccnc(Nc3ccc(F)cc3)n2)c1" falls below 6%? Thanks.
NOT MET

Dear colleague, could you confirm whether %Inh of "O=C(c1ccc(-c2cc(-c3c[nH]nc3-c3ccccn3)ccn2)cc1)N1CCCC1" falls below 6%? Thanks.
MET

Dear colleague, could you confirm whether %Inh of "COc1cc2ncnc(Nc3ccc(OCc4ccccc4Br)c(Cl)c3)c2cc1OC.Cl" falls below 6%? Thanks.
NOT MET

Dear colleague, could you confirm whether %Inh of "CC(C)(C)c1ccc(-n2cnc3c(N)ncnc32)cc1" falls below 6%? Thanks.
MET

Dear colleague, could you confirm whether %Inh of "Clc1ccc(-c2cc(-c3c[nH]nc3-c3ccccn3)ccn2)cc1" falls below 6%? Thanks.
MET

----------
System: CAMK2B
CONDITION_NOTES: concentration: 1 μM, replicates: in singlicate; n = 1
Measured %Inh values are reported for all entries that follow.
Your answer is read as %, so omit the unit and give the number.

Answered examples (5):
>>> df
                                   compound  readout_type  endpoint_unit  measurement
0   CCC(CC)(CC)n1cnc2c(N)ncnc21 [SKF-97620]          %Inh              %            0
1  O=C(CCO)NCCn1ccc2ncnc(Nc3ccc(Oc4cccc(C(F)(F)F)c4)c(Cl)c3)c21          %Inh              %            0
2  Cn1ccc2ncnc(Oc3ccc(NC(=O)Nc4cccnc4)c(Cl)c3)c21          %Inh              %           18
3  O=C(c1ccc(-c2cc(-c3c[nH]nc3-c3ccccn3)ccn2)cc1)N1CCCC1 [GW792479]          %Inh              %            5
4  COc1ccc(Nc2nccc(N3CCC(NC(=O)c4cccc(NC(C)=O)c4)C3)n2)cc1 (stereo not drawn) [GSK1379732]          %Inh              %            0

Query Oc1ccc2ncnc(Nc3ccc(OCc4ccccc4)cc3)c2c1 [GI262866] yields %Inh of 0

Query Fc1ccc(Nc2nccc(-c3c(-c4ccc(Cl)cc4)nn4ncccc34)n2)cc1F [GW829058] yields %Inh of 18

Query CC(=O)Nc1n[nH]c2ncc(-c3ccccc3)cc12 [SB-548492] yields %Inh of 0

Query C[C@H]1CC[C@@H](C(=O)Nc2ccccc2)CN1c1cc(-c2ccc3c(N)n[nH]c3c2)nc(N)n1 [GSK2283293] yields %Inh of 0

----------
Measured %Inh values are reported for all entries that follow.
Test system: RPS6KA5(Kin.Dom.2-C-terminal)
CONDITION_NOTES: concentration: 1 μM, replicates: in singlicate; n = 1

Answered examples (3):
In [3]: df
Out[3]:
                               smiles_entry                  target_system  readout_type  measurement
0  Cn1ccc2ncnc(Oc3ccc(NC(=O)Nc4cccnc4)c(Cl)c3)c21  RPS6KA5(Kin.Dom.2-C-terminal)          %Inh          13%
1        CC(=O)Nc1n[nH]c2ncc(-c3ccccc3)cc12  RPS6KA5(Kin.Dom.2-C-terminal)          %Inh           0%
2  FC(F)(F)c1cc(Nc2nccc(-c3c(-c4ccc(Cl)cc4)nn4ncccc34)n2)ccc1Cl  RPS6KA5(Kin.Dom.2-C-terminal)          %Inh           0%

Then there is this compound:
Query "Nc1nc(-c2ccc3c(N)n[nH]c3c2)cc(N2CCC[C@@H](C(=O)Nc3ccccc3)C2)n1.O=C(O)C(F)(F)F.O=C(O)C(F)(F)F" yields %Inh of 6%

----------
Tested on: TNNI3K;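 further: kd values determined as follow-up on hits from a single-replicate KINOMEscan panel screen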
pKd: −log10 of the molar value.
READOUT_TYPE: pKd

TNNI3K pKd of "O=C(Nc1ccccc1)Nc1ccc(Oc2ccc3nccn3n2)cc1" is < 5.00

----------
Tested on: EPHA6
CONDITION_NOTES: concentration: 1 μM, replicates: in singlicate; n = 1
Measured %Inh values are reported for all entries that follow.
Please answer using a numeric value trailed by its unit.

Answered examples (2):
                               smiles_entry  target_system  measurement
0  O=C(NCCCN1CCCC1=O)c1cnc(NCc2cc(Cl)ccc2Cl)nc1NC1CCNCC1          EPHA6           0%
1  Cl.Fc1ccccc1COc1ccc(Nc2ncnc3ccc(-c4nnc(C(F)(F)F)o4)cc23)cc1Cl          EPHA6           0%

Then there is this molecule:
Query "Cc1cccc(-c2nc(Nc3ccc4[nH]nnc4c3)c3ccccc3n2)n1" yields %Inh of 0%

----------
Measured %Inh values are reported for all entries that follow.
Test system: CAMKK1
CONDITION_NOTES: concentration: 1 μM, replicates: in singlicate; n = 1
Your answer is read as %, so omit the unit and give the number.

Answered examples (5):
In [3]: df
Out[3]:
                               smiles_entry  readout_type  measurement
0  N#Cc1ccc(Oc2ccc(Nc3ncnc4cc[nH]c34)cc2Cl)cc1          %Inh            6
1  COc1ccc(-c2oc3ncnc(N)c3c2-c2ccc(OC)cc2)cc1          %Inh            0
2  COc1cc2ncnc(Nc3ccc(OCc4ccccc4Br)c(Cl)c3)c2cc1OC.Cl          %Inh            0
3  Clc1ccc(-c2cc(-c3c[nH]nc3-c3ccccn3)ccn2)cc1          %Inh            0
4  CNc1nccc(-c2c(-c3ccc(F)cc3)ncn2CCCN2CCOCC2)n1          %Inh            8

Query "C[C@@H]1CCN(C(=O)CO)C[C@@H]1N(C)c1ncnc2[nH]ccc12" yields %Inh of 4

Query "CSc1ccc(NC2=C(c3ccccc3Cl)C(=O)NC2=O)cc1" yields %Inh of 5

Query "CC(C)(C)c1ccc(-n2cnc3c(N)ncnc32)cc1" yields %Inh of 0

Query "Clc1cc(Nc2ncnc3cc[nH]c23)ccc1OCc1ccccn1" yields %Inh of 0

Query "Cl.Cl.c1ccc(-c2cc3ccncc3cc2OC2CCNCC2)cc1" yields %Inh of 0

Query "CN1CCC(n2cnc(-c3ccc(F)cc3)c2-c2ccnc(NC3CCNCC3)n2)CC1" yields %Inh of 14

Query "CCc1nc(-c2cccc(C)c2)c(-c2ccnc(NC(=O)c3ccccc3)c2)s1" yields %Inh of 4

Query "COc1ccc(NC(=O)c2ccc(-c3cc(-c4nnc(C)o4)ccc3C)cc2)cc1" yields %Inh of 0

Query "Cl.c1ccc(Cn2ccc3cc(Nc4ncnc5ccccc45)ccc32)cc1" yields %Inh of 16

Query "O=C(Nc1ccccc1)Nc1ccc(Oc2ccc3nccn3n2)cc1" yields %Inh of 0

Query "Nc1nc(-c2ccccn2)c(-c2ccnc3ccccc23)s1" yields %Inh of 13

Query "Fc1ccc(Nc2nccc(-c3c(-c4ccc(Cl)cc4)nn4ncccc34)n2)cc1F" yields %Inh of 2

Query "Cl.Fc1ccccc1COc1ccc(Nc2ncnc3ccc(-c4nnc(C(F)(F)F)o4)cc23)cc1Cl" yields %Inh of 1

Query "Nc1nc(-c2ccc3c(N)n[nH]c3c2)cc(N2CCCCC2)n1" yields %Inh of 0

Numbers sourced from paper PMC5540273.
